Tested on: K562
procedure.text: NCI tumour cell line growth inhibition, 48 h
Activity calls are given as the source filed them. Rule as the data show it: active = GI50 up to about 1.1 µM and inactive = higher.
measured.endpoint: GI50

[[record]]
molecule = "CC1(C)C2C/C(=C\\c3ccccc3)C(=O)C1C2 (stereo unspecified)"
result = "> 100 µM (inactive)"

[[record]]
molecule = "COC(=O)C1=CC2CCCC1(O)C(C(C)=O)C2 (stereo unspecified)"
result = "34 µM (inactive)"

[[record]]
molecule = "O=c1[nH]cnc2c1nnn2C1C=C(CO)C(O)C1O (stereo unspecified)"
result = "> 100 µM (inactive)"

[[record]]
molecule = "COc1cc(C)cc2c(-c3c(O)cc(O)c4c3C[C@H](C)N[C@H]4C)cc(-c3cc(-c4c(O)cc(O)c5c4C[C@H](C)N[C@H]5C)c4cc(C)cc(OC)c4c3O)c(O)c12"
result = "> 100 µM (inactive)"

[[record]]
molecule = "N=C(N)NS(=O)(=O)c1ccc(NC(=O)c2cccn3c(=O)c4ccccc4nc23)cc1"
result = "32.3 µM (inactive)"

[[record]]
molecule = "O=C(c1ccccc1)c1nnc(C(=O)c2ccccc2)nn1"
result = "119 µM (inactive)"

[[record]]
molecule = "O=C(COc1ccccc1Cl)N1N=C(c2ccc(Cl)cc2)CC1(O)c1ccccc1 (stereo unspecified)"
result = "> 100 µM (inactive)"

[[record]]
molecule = "CCCC(=O)c1c(NOC2OC(COC(C)=O)C(OC(C)=O)C(OC(C)=O)C2OC(C)=O)nc(OC)n(C)c1=O (stereo unspecified)"
result = "> 100 µM (inactive)"

[[record]]
molecule = "O=c1[nH]nc(Cc2ccccc2)n1/N=C/c1cccnc1"
result = "> 100 µM (inactive)"

[[record]]
molecule = "Nc1c(C(=O)Nc2ccc([As](=O)(O)O)cc2)cnc2nnnn12"
result = "> 100 µM (inactive)"

[[record]]
molecule = "COc1nc2c(nc(N)n2C2OC(CO)C(O)C(O)C2O)c(=O)[nH]1 (stereo unspecified)"
result = "> 100 µM (inactive)"

[[record]]
molecule = "CN(C)CC1CN/C(=N\\C(=O)Nc2ccccc2)O1 (stereo unspecified)"
result = "> 100 µM (inactive)"

[[record]]
molecule = "Cc1ccc(S(=O)(=O)OCC23CCC(C4CC42)C2CC23)cc1 (stereo unspecified)"
result = "52.4 µM (inactive)"

[[record]]
molecule = "CCOC(=O)C(NC(=O)CC)(Nc1cc(C)on1)C(F)(F)F (stereo unspecified)"
result = "> 100 µM (inactive)"

[[record]]
molecule = "OC(c1ccccc1)(c1ccccc1)c1nccc2ccccc12"
result = "> 10 µM (inactive)"

[[record]]
molecule = "COc1nc2c(c(=O)n1C)N=C(c1ccc(Cl)cc1)CC(c1ccccc1)N2 (stereo unspecified)"
result = "6.78 µM (inactive)"

[[record]]
molecule = "C=C(C(=O)O)[C@@H]1C[C@@H](OC(C)=O)[C@]2(C)CC/C=C(\\C)CCC[C@H](C)[C@H](O)[C@@H]1O2"
result = "75.2 µM (inactive)"

[[record]]
molecule = "CCOc1cc(NC(C)=O)ccc1C(=O)NNC(=O)c1ccccc1OC(C)=O"
result = "3.02 µM (inactive)"

[[record]]
molecule = "O=C(NNC(=O)c1ccccc1Cl)c1ccccc1O"
result = "91 µM (inactive)"

[[record]]
molecule = "C1=CC=C2NCCCCCC/N=C3\\C=CC=CC=C3NCCc3cccc(c3)CC/N=C/2C=C1"
result = "4.59 µM (inactive)"

[[record]]
molecule = "CN(C)c1ccc(C2ON=C(c3ccccc3)N2C23CC4CC(CC(C4)C2)C3)cc1 (stereo unspecified)"
result = "9.12 µM (inactive)"

